Reported Max. Resp. (%) is given for each of the following molecules.
- subject_of_test: PKM2 (Homo sapiens, UniProt P14618)
- Sequence (P14618 whole entry): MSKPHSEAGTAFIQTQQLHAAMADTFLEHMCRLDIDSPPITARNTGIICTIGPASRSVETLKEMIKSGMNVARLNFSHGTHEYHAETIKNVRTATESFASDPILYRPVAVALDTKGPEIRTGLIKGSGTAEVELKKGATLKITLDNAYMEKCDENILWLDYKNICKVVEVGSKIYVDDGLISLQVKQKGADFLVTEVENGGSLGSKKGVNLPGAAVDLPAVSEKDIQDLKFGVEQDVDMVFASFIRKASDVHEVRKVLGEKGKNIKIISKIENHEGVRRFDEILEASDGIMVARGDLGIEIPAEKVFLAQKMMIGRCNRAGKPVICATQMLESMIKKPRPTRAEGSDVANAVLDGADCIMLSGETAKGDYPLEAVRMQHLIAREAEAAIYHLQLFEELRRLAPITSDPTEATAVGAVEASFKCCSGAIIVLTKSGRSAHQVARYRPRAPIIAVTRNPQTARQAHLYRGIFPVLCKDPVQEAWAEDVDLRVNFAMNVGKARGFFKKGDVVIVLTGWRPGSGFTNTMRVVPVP
- assay_details: PKM2 activation biochemical assay (AC50 / max. response vs fructose 1,6-bisphosphate)
- test_context: % maximum response in a biochemical assay as compared with Fructose 1,6-bisphosphate
Just the number in %, nothing appended.

The following molecules have reported results that may help.
Field Max. Resp. (%) (PKM2 (Homo sapiens, UniProt P14618)), entry O=C(c1cc(C(F)(F)F)n[nH]1)N(CCC1CCOCC1)Cc1ccccc1Cl [Compound 32] : 107

Field Max. Resp. (%) (PKM2 (Homo sapiens, UniProt P14618)), entry Nc1cccc(Cl)c1CN(CCN1CCCOCC1)C(=O)c1cc(C(F)(F)F)n[nH]1 [Compound 239] : 100

Field Max. Resp. (%) (PKM2 (Homo sapiens, UniProt P14618)), entry O=c1cc(Cn2cnc3ccccc32)nc2ccccn12 [PP4] : 161

Field Max. Resp. (%) (PKM2 (Homo sapiens, UniProt P14618)), entry CC1CCCN(CCN(Cc2ccccc2Cl)C(=O)c2cc(C(F)(F)F)n[nH]2)C1 (stereo not drawn) [Compound 191] : 100

Field Max. Resp. (%) (PKM2 (Homo sapiens, UniProt P14618)), entry O=C(c1cc(Br)n[nH]1)N(Cc1cccc2[nH]cnc12)CC1CCC1 [Compound 120] : 100

Others:
Field Max. Resp. (%) (PKM2 (Homo sapiens, UniProt P14618)), entry O=C(c1cc(C(F)(F)F)n[nH]1)N(CCC1CCS(=O)(=O)C1)Cc1ccc(O)cc1F (stereo not drawn) [Compound 76] : 93

Field Max. Resp. (%) (PKM2 (Homo sapiens, UniProt P14618)), entry O=C(c1cc(C(F)(F)F)n[nH]1)N(Cc1ccncc1Cl)CC1CCC1 [Compound 128] : 75

Field Max. Resp. (%) (PKM2 (Homo sapiens, UniProt P14618)), entry CO[C@H]1CC[C@H](N(Cc2cc(F)ccc2F)C(=O)c2cc(C(F)(F)F)n[nH]2)CC1 [Compound 50] : 90

Field Max. Resp. (%) (PKM2 (Homo sapiens, UniProt P14618)), entry CC[C@](C)(N)C(=O)Oc1ccc(CN(CC2CCC2)C(=O)c2cc(Cl)n[nH]2)c(F)c1 [Compound 115] : 104

Field Max. Resp. (%) (PKM2 (Homo sapiens, UniProt P14618)), entry O=C(CCSC(=S)NCc1cccnc1)c1cccnc1 [PMA29] : 106

Field Max. Resp. (%) (PKM2 (Homo sapiens, UniProt P14618)), entry NCCN(Cc1ccc(O)cc1F)C(=O)c1cc(C(F)(F)F)n[nH]1 [Compound 133] : 100

Field Max. Resp. (%) (PKM2 (Homo sapiens, UniProt P14618)), entry CCN(CC)CCN(Cc1ccccc1F)C(=O)c1cc(C(F)(F)F)n[nH]1 [Compound 148] : 100

* * *

Reported Max. Resp. (%) is given for each of the following compounds.
- subject_of_test: UniProt P14618
- assay_details: PKM2 activation biochemical assay (AC50 / max. response vs fructose 1,6-bisphosphate)
- test_context: % maximum response in a biochemical assay as compared with Fructose 1,6-bisphosphate

The following compounds have reported results that may help.
Record summary for `CCC1CCN(CCN(Cc2ccccc2Cl)C(=O)c2cc(C(F)(F)F)n[nH]2)CC1` : reported Max. Resp. (%) = 100/100%

Record summary for CC(CN(Cc1c(N)cccc1Cl)C(=O)c1cc(C(F)(F)F)n[nH]1)N1CCCC1 (stereo not shown) : reported Max. Resp. (%) = 60%

Record summary for `O=C(c1cc(C(F)(F)F)n[nH]1)N(CCC1CCSCC1)Cc1ccc(O)cc1F` : reported Max. Resp. (%) = 98%

Record summary for `O=C(CCSC(=S)NCc1cccnc1)c1c[nH]c2ncccc12` : reported Max. Resp. (%) = 182%

Record summary for Nc1cccc(Cl)c1CN(CC1CCN1)C(=O)c1cc(C(F)(F)F)n[nH]1 (stereo not shown) : reported Max. Resp. (%) = 75%

Record summary for `CN(C)Cc1c[nH]c2cccc(CN(CC3CCC3)C(=O)c3cc(Cl)n[nH]3)c12` : reported Max. Resp. (%) = 100%

Record summary for `Cc1ccc2nc(Cn3c(C)nc4ccccc43)cc(=O)n2c1` : reported Max. Resp. (%) = 73%

Record summary for `CC(C)OCCN(Cc1ccccc1Cl)C(=O)c1cc(C(F)(F)F)n[nH]1` : reported Max. Resp. (%) = 37%

Others:
Record summary for `Nc1cccc(Cl)c1CN(CCN1CCCC1)C(=O)c1cc(C(F)(F)F)n[nH]1` : reported Max. Resp. (%) = 100%

Record summary for `O=C(c1cc(C(F)(F)F)n[nH]1)N(CCC1CCOCC1)Cc1ccccc1F` : reported Max. Resp. (%) = 118%

Record summary for `CC(C)O[C@H]1CC[C@H](N(Cc2ccccc2Cl)C(=O)c2cc(C(F)(F)F)n[nH]2)CC1` : reported Max. Resp. (%) = 63%

Record summary for `COc1cccc(NS(=O)(=O)c2cc3c(cc2Cl)NC(=O)CO3)c1` : reported Max. Resp. (%) = 108%

Record summary for O=C(c1cc(C(F)(F)F)n[nH]1)N(CCC1CCCO1)Cc1ccccc1F (stereo not shown) : reported Max. Resp. (%) = 70%

Record summary for `CCN(CC)CCN(Cc1cccc(F)c1Cl)C(=O)c1cc(C(F)(F)F)n[nH]1` : reported Max. Resp. (%) = 100%

Record summary for `CCCN(CC)CCN(Cc1c(N)cccc1Cl)C(=O)c1cc(C(F)(F)F)n[nH]1` : reported Max. Resp. (%) = 100%

Record summary for `O=C(c1cc(C(F)(F)F)n[nH]1)N(CCC1CCNCC1)Cc1ccccc1F` : reported Max. Resp. (%) = 56%

Record summary for `COCCCN(Cc1ccccc1F)C(=O)c1cc(C(F)(F)F)n[nH]1` : reported Max. Resp. (%) = 75%

Record summary for `O=C(c1cc(C(F)(F)F)n[nH]1)N(CCN1CCCC1)Cc1ccccc1Cl` : reported Max. Resp. (%) = 100%

Record summary for CC(c1ccccc1)N(CC1CCC1)C(=O)c1cc(C(F)(F)F)n[nH]1 (stereo not shown) : reported Max. Resp. (%) = 106%

Record summary for `CCN1CCN(CCN(Cc2ccccc2F)C(=O)c2cc(C(F)(F)F)n[nH]2)CC1` : reported Max. Resp. (%) = 115%

Record summary for `O=C(CCSC(=S)NCc1cccnc1)c1ccc(F)cc1` : reported Max. Resp. (%) = 48%

Record summary for CC1CCCN(CCN(Cc2ccccc2F)C(=O)c2cc(C(F)(F)F)n[nH]2)C1 (stereo not shown) : reported Max. Resp. (%) = 100%

Record summary for `O=C(c1cc(C(F)(F)F)n[nH]1)N(CCN1CCCC1)Cc1c(F)cccc1Cl` : reported Max. Resp. (%) = 100%

Record summary for `CCOCCN(Cc1c(Cl)cccc1Cl)C(=O)c1cc(C(F)(F)F)n[nH]1` : reported Max. Resp. (%) = 76%

Record summary for `O=C(CCSC(=S)NCc1cccnc1)c1cc[nH]c1` : reported Max. Resp. (%) = 30%
